Tested on: wheat (Triticum aestivum)
assay.name: Test B pre-/postemergence plant response
Format: in vivo
stated.conditions: 8 g ai/ha, postemergence; 0-100 scale
Wheat plant response rating values, listed per item
Please state the value as a number alone, without comment.

input: Find the measured Wheat plant response rating of CCc1cc(-c2ccc(C(F)(F)F)cc2)nn1-c1c(O)cnn(CC)c1=O and report it.
output: 95

Further cases:
input: Find the measured Wheat plant response rating of COCc1cc(-c2ccc(Br)cc2)nn1-c1c(O)cnn(C)c1=O and report it.
output: 0

----------
System: giant foxtail (Setaria faberii)
assay.name: Test B pre-/postemergence plant response
Format: in vivo
stated.conditions: Postemergence, 16 g ai/ha; scale 0 to 100
Plant response rating, Foxtail, Giant values, listed per item
Please state the value as a number alone, without comment.

input: Enter recorded Plant response rating, Foxtail, Giant with giant foxtail (Setaria faberii) for CCc1cc(-c2ccc(Cl)cc2)nn1-c1c(OC(=O)OC(C)C)cnn(C)c1=O [Compound 41] here.
output: 100

input: Enter recorded Plant response rating, Foxtail, Giant with giant foxtail (Setaria faberii) for Cc1cc(-c2ccc(Cl)cc2)nn1-c1c(OC(=O)C(C)C)cnn(C)c1=O [Compound 34] here.
output: 90

input: Enter recorded Plant response rating, Foxtail, Giant with giant foxtail (Setaria faberii) for Cn1ncc(O)c(-c2nn(-c3ccc(Cl)cc3)cc2Cl)c1=O [Compound 28] here.
output: 80

input: Enter recorded Plant response rating, Foxtail, Giant with giant foxtail (Setaria faberii) for COC(=O)Oc1cnn(C)c(=O)c1-n1nc(-c2ccc(Cl)cc2)cc1C [Compound 33] here.
output: 100

input: Enter recorded Plant response rating, Foxtail, Giant with giant foxtail (Setaria faberii) for CCc1cc(-c2ccc(C(F)(F)F)cc2)nn1-c1c(OS(C)(=O)=O)cnn(C)c1=O [Compound 19] here.
output: 100

Let us examine a further case.
input: Enter recorded Plant response rating, Foxtail, Giant with giant foxtail (Setaria faberii) for Cc1cc(-c2ccc(Cl)cc2)nn1-c1c(OC(=O)OCC(C)C)cnn(C)c1=O [Compound 57] here.
output: 95

Reference for the values: patent US20100267561A1
